Test: ATG_PXRE_CIS: Attagene CIS-FACTORIAL HepG2 Assay for human Pregnane X Receptor Element (PXRE) (AID 2282957)
Details: HepG2 Attagene CIS-FACTORIAL PXRE reporter, mRNA; actives raise or lower the signal
Method: ATG_CIS is a cell-based, multiplexed-readout assay that uses HepG2, a human liver cell line, with measurements taken at 24 hours after chemical dosing in a 24-well plate.ATG_PXRE_CIS is one of 52 assay component(s) measured or calculated from the ATG_CIS assay. […] This assay endpoint, ATG_PXRE_CIS, was analyzed with bidirectional fitting relative to DMSO as the negative control and baseline of activity. […]
Activity calls are given as the source filed them. The calls were made as follows: active = hit-call score of the fitted dose curve at least 0.9, where 1 is the maximum; inactive = score below 0.9.
recorded-endpoint: AC50

Example molecules with recorded AC50:
CC(C)(N)CO = inactive
CC(=O)OCCC(C)CC(C)(C)C (configuration not stated) = inactive
CN(C)C(=N)N=C(N)N = inactive
CN(C)c1ccc(O)c2c1C[C@H]1C[C@H]3[C@H](N(C)C)C(=O)C(C(N)=O)=C(O)[C@@]3(O)C(=O)C1=C2O = inactive
Cc1ccc(C=O)cc1 = inactive

Challenge: Look up AC50 of `CC(=O)C(=O)O` and report it.
Response given: inactive

Values from PubChem BioAssay (EPA / NIEHS)
